# System: 379773-124-R-J2-PDC complex spheroids, viability % test/control;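 further: compound exposure lasted seven days before the viability readout; 100% = DMSO vehicle control wells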
# Procedure Details: Anticancer human tumor 379773-124-R-J2-PDC patient-derived endometrial carcinoma cell line growth inhibition [CLK]
# Run Parameters: second compound 0.0316 µM; first compound 0.0316 µM; hits give low values
Kindly state viability, T/C for each of the entries shown.

Query: I would be grateful if you could share the reported viability, T/C for CC(CO)NC(=O)c1cc(-c2ccc(Cl)cc2)nn(-c2cnn(C)c2)c1=O (stereo unspecified) + CNC(=O)c1ccc(Nc2nc(OC3CCCC3)c3c(-c4ccc5nc(C)oc5c4)c[nH]c3n2)c(OC)c1 .
Response: 72%

Query: I would be grateful if you could share the reported viability, T/C for COc1cccc2c1C(=O)c1c(O)c3c(c(O)c1C2=O)CC(O)(C(=O)CO)CC3OC1CC(N)C(O)C(C)O1 (stereo unspecified) + CNC(=O)c1ccc(Nc2nc(OC3CCCC3)c3c(-c4ccc5nc(C)oc5c4)c[nH]c3n2)c(OC)c1 .
Response: 31.1%

Query: I would be grateful if you could share the reported viability, T/C for CCc1c2c(nc3ccc(O)cc13)-c1cc3c(c(=O)n1C2)COC(=O)[C@]3(O)CC + CN1CCN(c2cc(C(=O)Nc3cc4cc(-c5cnn(C)c5)ccc4cn3)ccn2)CC1 .
Response: 3.67%

Query: I would be grateful if you could share the reported viability, T/C for COc1cccc2c1C(=O)c1c(O)c3c(c(O)c1C2=O)CC(O)(C(=O)CO)CC3OC1CC(N)C(O)C(C)O1 (stereo unspecified) + CN1CCN(c2cc(C(=O)Nc3cc4cc(-c5cnn(C)c5)ccc4cn3)ccn2)CC1 .
Response: 41%

Query: I would be grateful if you could share the reported viability, T/C for O=c1[nH]cc(F)c(=O)[nH]1 + CNC(=O)c1ccc(Nc2nc(OC3CCCC3)c3c(-c4ccc5nc(C)oc5c4)c[nH]c3n2)c(OC)c1 .
Response: 86.5%

Query: I would be grateful if you could share the reported viability, T/C for CC1COCCN1c1cc(C2(S(C)(=N)=O)CC2)nc(-c2ccnc3[nH]ccc23)n1 (stereo unspecified) + CNC(=O)c1ccc(Nc2nc(OC3CCCC3)c3c(-c4ccc5nc(C)oc5c4)c[nH]c3n2)c(OC)c1 .
Response: 78%

Query: I would be grateful if you could share the reported viability, T/C for C=CC(=O)N1CCN(c2nc(=O)n(-c3c(C)ccnc3C(C)C)c3nc(-c4c(O)cccc4F)c(F)cc23)C(C)C1 (stereo unspecified) + CNC(=O)c1ccc(Nc2nc(OC3CCCC3)c3c(-c4ccc5nc(C)oc5c4)c[nH]c3n2)c(OC)c1 .
Response: 74.3%

Query: I would be grateful if you could share the reported viability, T/C for C#Cc1c(F)ccc2cc(O)cc(-c3ncc4c(N5CC6CCC(C5)N6)nc(OCC56CCCN5CC(F)C6)nc4c3F)c12 (stereo unspecified) + CN1CCN(c2cc(C(=O)Nc3cc4cc(-c5cnn(C)c5)ccc4cn3)ccn2)CC1 .
Response: 88.4%

Query: I would be grateful if you could share the reported viability, T/C for Nc1ccn(C2OC(CO)C(O)C2(F)F)c(=O)n1 (stereo unspecified) + CN1CCN(c2cc(C(=O)Nc3cc4cc(-c5cnn(C)c5)ccc4cn3)ccn2)CC1 .
Response: 10.9%

Query: I would be grateful if you could share the reported viability, T/C for CC(Nc1ccc2c(c1)OCCn1cc(N3C(=O)OCC3C(F)F)nc1-2)C(N)=O (stereo unspecified) + CN1CCN(c2cc(C(=O)Nc3cc4cc(-c5cnn(C)c5)ccc4cn3)ccn2)CC1 .
Response: 85.2%

Query: I would be grateful if you could share the reported viability, T/C for COC1C=CCC(C)C(C)S(=O)(=O)NC(=O)c2ccc3c(c2)N(CC2CCC21)CC1(CCCc2cc(Cl)ccc21)CO3 (stereo unspecified) + CN1CCN(c2cc(C(=O)Nc3cc4cc(-c5cnn(C)c5)ccc4cn3)ccn2)CC1 .
Response: 87.2%
